Target: T1, mouse TMEM106B (mouse, UniProt Q80X71 2-275)
T1 construct: transiently expressed on HEK293 cells, or native on mouse Neuro2a cells; also called moTMEM106B; murine TMEM106B
Test: FACS Neuro2a;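 note: flow cytometry of antibody binding to cells: hybridoma supernatant or purified antibody at 10 µg/ml, 1 h on ice, secondary detection, propidium iodide–positive dead cells gated out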
So I've got a bunch of binders here, and I need their MFI values.

{"columns": ["binder", "MFI"],
 "data": [
  ["TM-11 (antibody, V domains shown) VH: QVQLKQSGPGQVQPSQSLSITCTVSGFSLSDYGVHWVRQSPGKGLEWLGVIWNNGNTDYNAAFISRLSINKDNSKSQVFFKMTSLQADDTAIYYCVRSLRPLHFDYWGQGTTVTVSS VL: DIVMTQSPSSLTMSVGQKVTMHCKSSQSLLNSNNLQNYLAWYQQKPGQSPTLLVYFASIRESGVPDRFIGSGSGTDFTLTISSVQAEDLADYFCQQHYNTPFTFGSGTKLEIR", "1040 MFI"],
  ["TM-27 (antibody, V domains shown) VH: QVQLQQSGAELVRPGTSVKVSCKASGYALTNYLIEWVKQRPGQGLEWIGVINPGSGSTKYNEKFKGKATLTADKSSSTAYMQLSSLTSEDSAVYFCARIIYDHDWYFDVWGTGTTVTVSS VL: QIVLTQSPAIMSASPGEKVTISCSASSSISYMYWYQQKPGSSPKPWIYRTSTLASGVPARFSGSGSGTSYSLTISSMEAEDAATYYCQQYHSYPRTFGGGTKLEIK", "1580 MFI"],
  ["TM-5 (antibody, V domains shown) VH: QVQLQQSGTELARPGASVKVSCKASGYIFTTYGITWVKQRGGQGLEWIGEIYPRSDNTYYNEKFKDKATLTADKSSSTAYMELRSLTSEDSAVYFCARSKGSGTGDYWGQGTTVTVSS VL: DIQMTQSPASLSASVGETVTITCRASENIYIYLAWYQQKQGKTPQLLVYNGKMLAENVPSRFSGSGSGTQFSLKINSLQPEDFGSYYCQHHYGSPPAFGAGTKLELK", "1610 MFI"]
]}

Look up MFI for the entries below, preserving their order.
1. TM-16 (antibody, V domains shown) VH: EVQLQQSGAELVRPGASVKLSCTTSGFNIKDYYMHWVKQRTEQGLEWIGRIDPEDGETKYAPEFQGKATITSDTSSNTAFLQLSSLTSEDTAVYYCASSQPFTYWGQGTLVTVSA VL: QIVLTQSPAIMSASPGEKLTMTCSASSSLNYMYWYQQKPGSSPRLLIYDTSNLASGVPVRFSGSGSGTSYSLTISRMEAEDGATYYCQQWTSFPPTFGAGTKLELK
2. TM-45 (antibody, V domains shown) VH: QVQLQQSGAELAKPGASVKLSCKASGYTFTNYWMHWVKKRPGQGLEWIGYINPSSGYTKYNQKFKDKATLTADKSSNTAYMQLSSLTYEDSAVYYCTREGGSISDWYFDVWGTGTTVTVSS VL: DIVMTQAAPSLPVTPGESVSISCRSSKSLLHSNGNTYLYWFLQRPGQSPQLLIYRMSNLASGVPDRFSGSGSGTAFTLRISRVEAEDVGVYYCMQHLEYPYTFGGGTKLEIK

A)
1: 392 MFI; 2: 187 MFI

Hello, the source for this data is patent US20200339680A1, in case you need it.
